Sourced from PubChem BioAssay

System: Inhibin beta A chain (activin A)
Assay: INHBA (activin A) binders on microarrays, primary screen, biochemical, small-molecule microarray, 635 nm fluorescence scan (AID 1107);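 also: mouse activin A protein probed at 4.33 µg/mL on printed slides; score merges bound-protein fluorescence near 667 nm with spot signal-to-noise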
Details: small-molecule microarray binding, higher = more signal
// label = Condition met if composite z-score is not less than 0.8, otherwise Condition not met

molecule: COC(=O)[C@@]1(Cc2ccccc2)[C@H]2c3cc(C(=O)N4CCCC4)n(Cc4cc(F)cc5c4OCOC5)c3C[C@H]2CN1C(=O)c1ccccc1
measured_target: Inhibin beta A chain (activin A)
group: Condition not met
//
molecule: O=C1O[C@@H](c2ccccc2)[C@@H](c2ccccc2)N2[C@@H](c3ccc(O)cc3)[C@]3(C(=O)Nc4ccc(C#CC5=CCCCC5)cc43)[C@@H](C(=O)N3CCN(c4ncccn4)CC3)[C@H]12
measured_target: Inhibin beta A chain (activin A)
group: Condition not met
//
molecule: C=CCN1C(=O)[C@@]2(O[C@@H](CCO)[C@H]([Si](C)(C)c3ccc(OC)cc3)[C@H]2C)c2cc(N3C(=O)c4ccccc4Oc4ccccc43)ccc21
measured_target: Inhibin beta A chain (activin A)
group: Condition not met
//
molecule: COc1ccccc1CN1C(=O)c2ccccc2[C@@H](C(=O)NC(C)C)[C@@H]1c1ccc(CO)cc1
measured_target: Inhibin beta A chain (activin A)
group: Condition met
//
molecule: COC(=O)Cn1c(C(=O)N2CCCC2)cc2c1C[C@H]1CN(C(=O)c3ccccc3)[C@@](Cc3ccc(F)cc3)(C(=O)OC)[C@@H]21
measured_target: Inhibin beta A chain (activin A)
group: Condition not met
//
molecule: NC(=O)N1C(=O)C2C(C1=O)C1C=C(c3ccc(CO)cc3)C2C(C2CC2)N1Cc1sc2ccccc2c1Cl (configuration not stated)
measured_target: Inhibin beta A chain (activin A)
group: Condition not met
//
molecule: CC(C)(C)OC(=O)CC[C@]1(C(=O)N2CCOCC2)N=C(c2ccc(OCCCO)cc2)O[C@H]1c1ccccc1
measured_target: Inhibin beta A chain (activin A)
group: Condition not met
//
molecule: O=C1OCCC=C[C@H]2OC34C=CCN(c5ccc(Cl)cc5)C(=O)[C@H]3N(CCCCCO)C(=O)[C@@H]4C12 (some centres not stated)
measured_target: Inhibin beta A chain (activin A)
group: Condition met
//
molecule: CO[C@H]1O[C@H](CO)[C@@H](OC(=O)c2ccc(Br)cc2)[C@@H]2OC(=O)[C@@H](Cc3ccc4ccccc4c3)C/C=C/C[C@H](Cc3ccc4ccccc4c3)C(=O)O[C@@H]12
measured_target: Inhibin beta A chain (activin A)
group: Condition not met
//
molecule: COCCOC(=O)N1C(=O)[C@@]2(c3cc(C#CC4(O)CCCCCC4)ccc31)[C@H](C(N)=O)[C@H]1C(=O)O[C@H](c3ccccc3)[C@H](c3ccccc3)N1[C@@H]2c1ccc(O)cc1
measured_target: Inhibin beta A chain (activin A)
group: Condition not met
//
molecule: COC(=O)[C@]1(CCS(=O)(=O)c2ccccc2)N=C(c2ccc(OCCCO)cc2)O[C@@H]1c1ccccc1CN=[N+]=[N-]
measured_target: Inhibin beta A chain (activin A)
group: Condition not met
//
molecule: NC(=O)N1C(=O)C2C(C1=O)C1C=C(CCCO)C2C(c2cccs2)N1Cc1cc2c(cc1Br)OCO2 (configuration not stated)
measured_target: Inhibin beta A chain (activin A)
group: Condition met
//
molecule: COc1ccc([Si](C)(C)[C@H]2[C@H](CCn3cc([C@H](O)c4ccccc4)nn3)O[C@@]3(C(=O)N(Cc4cccc(N5C(=O)c6cccc7cccc5c67)c4)c4ccccc43)[C@@H]2C)cc1
measured_target: Inhibin beta A chain (activin A)
group: Condition not met
//
molecule: COC(=O)[C@@]1(Cc2ccc(F)cc2)[C@H]2c3cc(C(=O)N4CCCC4)n(CCc4c[nH]c5ccc(OC)cc45)c3C[C@H]2CN1C(=O)c1ccccc1
measured_target: Inhibin beta A chain (activin A)
group: Condition met
//
molecule: O=C1O[C@@H](c2ccccc2)[C@@H](c2ccccc2)N2[C@@H](c3ccccc3OCCO)[C@]3(C(=O)Nc4ccc(C#CCCO)cc43)[C@@H](C(=O)Nc3nc4ccccc4s3)[C@H]12
measured_target: Inhibin beta A chain (activin A)
group: Condition not met
//
molecule: [N-]=[N+]=NCc1ccccc1C[C@@]1(C(=O)N2CCCCC2)N=C(c2ccc(OCCCO)cc2)O[C@@H]1c1ccccc1N=[N+]=[N-]
measured_target: Inhibin beta A chain (activin A)
group: Condition met
//
molecule: CCOc1cc(C(O)C2C=CC3C(=O)N(C4CCCCC4)C(=O)C3N2Nc2ccc(OC)cc2)ccc1O (configuration not stated)
measured_target: Inhibin beta A chain (activin A)
group: Condition met
//
molecule: COCC(=C=CC[C@H](O)c1cccc(OCCO)c1)C[C@H](O)c1ccccn1
measured_target: Inhibin beta A chain (activin A)
group: Condition not met
//
molecule: CC(C)N1C(=O)[C@@]2(c3ccc([N+](=O)[O-])cc3)CC(=O)N(C3CCCCC3)[C@@H]2c2ccc(CO)cc21
measured_target: Inhibin beta A chain (activin A)
group: Condition met
//
molecule: COCCOC(=O)N1C(=O)[C@@]2(c3cc(C#Cc4ccc(OC)cc4)ccc31)[C@H](C(=O)N1CCN(c3ncccn3)CC1)[C@H]1C(=O)O[C@H](c3ccccc3)[C@H](c3ccccc3)N1[C@@H]2c1ccccc1OCCO
measured_target: Inhibin beta A chain (activin A)
group: Condition not met
//
molecule: CCOC(=CC(=O)OC)CC(O)c1cccc(Cl)c1 (configuration not stated)
measured_target: Inhibin beta A chain (activin A)
group: Condition not met
//
molecule: CCOC(=O)C1=CC[C@@H](c2cc(Cl)ccc2Cl)N(S(=O)(=O)c2ccc(C)cc2)[C@H]1c1ccc(OC)cc1
measured_target: Inhibin beta A chain (activin A)
group: Condition met
//
molecule: O=C(CS)NCCCCCCNC(=O)[C@H]1C[C@H]2C(=O)N[C@@H](Cc3ccccc3)C(=O)N2[C@H]1c1cccc(OCCO)c1
measured_target: Inhibin beta A chain (activin A)
group: Condition not met
//
molecule: COc1cc2c(cc1OC)CN(C(=O)[C@@H]1[C@H]3C(=O)O[C@H](c4ccccc4)[C@H](c4ccccc4)N3[C@H](c3ccccc3OCCO)[C@@]13C(=O)Nc1ccc(C#CC4(O)CCCCCC4)cc13)CC2
measured_target: Inhibin beta A chain (activin A)
group: Condition not met
//
molecule: CCOC(=O)C[C@H]1[C@H](OC(=O)c2ccc(-c3ccccc3)cc2)[C@@H](NC(=O)C2CCCCC2)c2cc(OCCCO)ccc2N1C(=O)c1ccccc1
measured_target: Inhibin beta A chain (activin A)
group: Condition not met
